System: MDA-MB-435 melanoma
Assay: NCI-60 one-dose screen, 48 h
Conditions: 10 µM unless noted
Procedure: Growth inhibition of the MDA-MB-435 human Melanoma tumor cell line is measured as a screen for anti-cancer activity. Cells are grown in 96 well plates and exposed to the test compound for 48 hours. Compounds are tested at a single concentration, which is 10^-5 M for most compounds. The reported endpoint is percent growth (GI% or GIPRCNT), where numbers from 0 - 100% represent growth inhibition, and numbers from -100% - 0 represent cell death. […]
Compounds without any hit were thinned out: in the full panel of roughly 83,000, 20% have a hit. Active and inactive are the calls of the source. The calls were made as follows: active = growth percent below 10; inactive = the rest.
Classes used: active, inactive

molecule | assayedTarget | labelValue
COC(=O)[C@H](Cc1ccccc1)NC(=O)c1csc([C@@H](C[C@H](C(C)C)N(C)C(=O)[C@@H](NC(=O)[C@H]2CCCN2C)C2CC2)OC(C)=O)n1 | MDA-MB-435 melanoma | active
O=C(O)C1C(C(=O)O)C2(Cl)C(Cl)=C(Cl)C1(Cl)C2(Cl)Cl.[Hg] (stereo not given) | MDA-MB-435 melanoma | inactive
CN1C(=O)C(=Cc2cn(CCCCCCn3c4ccccc4c(=O)c4ccccc43)c3ccccc23)C(=O)N(C)C1=O | MDA-MB-435 melanoma | inactive
CC1(C)N=C(N)N=C(N)N1c1ccc(OCCCNC(=O)Nc2ccc(S(=O)(=O)F)cc2)c(Cl)c1 | MDA-MB-435 melanoma | inactive
CCOP1(=O)CC(C)=C(Cl)C(P(=O)(OCC)OCC)C1 (stereo not given) | MDA-MB-435 melanoma | inactive
CC(=O)[C@H]1CC[C@H]2[C@@H]3CC[C@H]4C[C@H](N)CC[C@]4(C)[C@H]3CC[C@]12C | MDA-MB-435 melanoma | inactive
CCCCCCCOC(C(=O)OCCN(CC)CC)(c1ccccc1)c1ccccc1 | MDA-MB-435 melanoma | inactive
CCOC(=O)N[C@H]1CCc2c(Br)c(OC)c(OC)c(OC)c2-c2ccc(SC)c(=O)cc21 | MDA-MB-435 melanoma | active
O=C(Nc1ccc(Br)cc1)c1cc(Br)cc(Br)c1O | MDA-MB-435 melanoma | active
Cc1ccc(S(=O)(=O)F)cc1C(=O)O | MDA-MB-435 melanoma | inactive

* * *

Test system: ACHN renal
Test: NCI-60 one-dose screen, 48 h (100 = growth as untreated, 0 = no growth, -100 = all killed)
Settings: 10 µM unless noted
About 83,000 compounds went through this panel and 20% of them were active in at least one assay; those are over-represented in the sample as a whole.
// reported growth for each item listed

compound | assayedTarget | measurementUnits | growth
O=C(CN1CCN(C(=O)c2ccco2)CC1)Nc1ccc(Cl)cc1C(=O)c1ccccc1Cl | ACHN renal | % | 81.3
CC[C@H](C)[C@H](NC(=O)c1cccn1C)C(=O)N(C)[C@H](C[C@@H](OC(C)=O)c1nc(C(=O)N[C@@H](Cc2ccccc2)C[C@H](C)C(=O)OC)cs1)C(C)C | ACHN renal | % | 30
c1cnc2[nH]cc(-c3csc(-c4cn(CCCCN5CCCCC5)c5ccccc45)n3)c2c1 | ACHN renal | % | 98.5
CCCCCCCCCCCCCCCCCC1OC[C@@H](COC(=O)O[C@@H](C(=O)O[C@H]2C[C@@]3(O)[C@@H](OC(=O)c4ccccc4)[C@@H]4[C@]5(OC(C)=O)CO[C@@H]5C[C@H](O)[C@@]4(C)C(=O)[C@H](OC(C)=O)C(=C2C)C3(C)C)[C@@H](NC(=O)c2ccccc2)c2ccccc2)O1 (some centres not stated) | ACHN renal | % | 92.4
CSc1nc(Cl)cc(N2CC2)n1 | ACHN renal | % | 109
CCC(CC)CC1(C)CC2(C)CCOC2OO1 (configuration not stated) | ACHN renal | % | 111
Cc1cccc(N2CCN(C(C)C#N)CC2)c1 (configuration not stated) | ACHN renal | % | 104
C1CCC2(CC1)OOCNCOO2 | ACHN renal | % | 110
CC(=O)OCc1cc[c]([Hg][Cl])o1 | ACHN renal | % | 60.8
CC12CCC3C(CCC4=CC(=O)CCC43CF)C1CCC2=O (configuration not stated) | ACHN renal | % | 120
CC[C@@H]1[C@@H](C)O[C@@](O)([C@@H](C)[C@H](O)[C@H](C)[C@H]2OC(=O)/C=C/C=C/[C@H](C)[C@@H]([C@@H](C)[C@@H](O)[C@H](C)[C@@]3(O)C[C@@H](O[C@H]4C[C@@H](O)[C@H](O)C(C)O4)[C@H](CC)[C@@H](C)O3)OC(=O)/C=C/C=C/[C@@H]2C)C[C@H]1O[C@@H]1C[C@@H](O)[C@H](O)C(C)O1 (some centres not stated) | ACHN renal | % | -96.8
CCCCN(CCCC)P(=O)(Oc1ccccc1)Oc1ccccc1 | ACHN renal | % | 80.8
C[N+]12CN3CN(CN(C3)C1)C2 | ACHN renal | % | 108
CC(C)=CCc1c(O)c(C(=O)CC(C)C)c(O)c2c(-c3ccccc3)cc(=O)oc12 | ACHN renal | % | 59.4
Cn1cc(-c2csc(-c3cn(CCCCN4CCCCC4)c4ccc(F)cc34)n2)c2cccnc21 | ACHN renal | % | 54.6
Cc1cnc(/C=C/C(=O)O)cc1-c1cc2c(cc1C)C(C)(C)CCC2(C)C | ACHN renal | % | 81.7
CC1=C(CCCOC(=O)[C@H](N)CC(C)C)C2=C(C)C3(CC3)[C@@](C)(O)C(=O)C2=C1 | ACHN renal | % | -43
